The values you see were collected from ChEMBL document CHEMBL1201862.

- Tested on: Hs-578T
- experiment: NCI tumour cell line growth inhibition, 48 h
Active and inactive are the calls of the source. Rule as the data show it: active = GI50 up to about 1.1 µM and inactive = higher.
Quick reference for GI50 among some compounds

Here's what some known entries look like.
| compound | system_under_test | GI50 |
| --- | --- | --- |
| CCOC(=O)C(C(=O)COC(C)(C)C)[C@@H]1C=C[C@H](OC(C)=O)C1 (stereo partly specified) | Hs-578T | > 100 µM (inactive) |
| C=CCOc1ccc(C(=N/NC(=O)c2ccccc2)/N=N/c2ccccc2)cc1OC | Hs-578T | 70.8 µM (inactive) |
| CC1(CC2=C(C(=O)NCCO[Si](C)(C)C(C)(C)C)C3(OCCO3)C2=O)OCCO1 | Hs-578T | > 100 µM (inactive) |
| COC1=C(Br)[C@H](O)[C@@]2(C=C1Br)CC(C(=O)NCCCCCNC(=N)N)=NO2 | Hs-578T | > 10 µM (inactive) |
| N=C(N)n1nc2c(c1O)CCC2 | Hs-578T | > 100 µM (inactive) |

Input line: Please look up its GI50: CC(=O)C(C)CCOC1(C)OCCC1C (stereo unspecified)
Output line: > 100 µM (inactive)
